test: qHTS assay for small molecule disruptors of the mitochondrial membrane potential (AID 720635); details: HepG2 mitochondrial membrane potential, Mito-MPS dye ratio; series mostly up to 83.2 µM
Inconclusive results are not listed. Calls of active or inactive are those of the source. Calls come from the whole dose curve; as a rule, active = well fitted inhibition curve with a large enough effect in the signal ratio in the repeat runs; inconclusive = weak or mixed curves, or effect the other way; inactive = flat fitted curve, though single readings scatter; the % refers to the signal ratio.
Outcome field: choose from t = active, f = inactive

QUERY: Can you look up the reported call for O=[N+]([O-])c1ccc2c3c(cccc13)CC2 for me?
RESULT: t

QUERY: I'd appreciate the recorded outcome for C[N+](=O)[O-] from this test.
RESULT: f

QUERY: Identify the outcome logged in this assay for the compound shown: CCCCCCI
RESULT: f

----------
Target: Cytochrome P450 2C19 (Homo sapiens)
Assay: Cytochrome P450 Family 2 Subfamily C Member 19 (CYP2C19) small molecule antagonists: luciferase reporter qHTS assay (AID 1671197); note: nearly all actives have a fitted effect of over 65% in size
Settings: P450-Glo CYP2C19 enzyme, luciferin luminescence, 1 h; series mostly up to 115 µM
Excerpt: National Center for Advancing Translational Sciences [NCATS] U.S. Environmental Protection Agency [EPA] National Institutes of Environmental Health Sciences [NIEHS] National Toxicology Program [NTP] U.S. Food and Drug Administration [FDA] Cytochrome P450 (CYP) enzymes are membrane-bound hemeproteins that play a key role in metabolism of drugs and xenobiotics. […] The luciferin products formed are detected with a luciferin detection reagent, and the amount of light produced is proportional to CYP activity. […]
Inconclusive results are not listed. The source made the active and inactive calls. Calls come from the whole dose curve; as a rule, active = well fitted inhibition curve with a large enough effect in the repeat runs; inconclusive = weak or mixed curves; inactive = no such curve, though single readings can be large or run the other way.
In this exercise, the only acceptable responses are y for active, n for inactive

QUERY: Could you check what this test reported for CCCSC(=O)Cl ?
RESULT: n

QUERY: Query: recorded result category for O=[N+]([O-])c1cccc(O)c1 in this test
RESULT: n

QUERY: For Nc1n[nH]c(N)n1 , what call appears in the results of this test?
RESULT: n

QUERY: Any idea what this test logged for O=C1CN2CCOC2(c2ccccc2Cl)c2cc(Cl)ccc2N1 (centres undefined) ?
RESULT: y

QUERY: What was the test verdict on CC(C(=O)c1ccccc1)N(C)C (centres undefined) ?
RESULT: y

QUERY: Hi, sorry to bother you, what did the test record for Nc1cnn(-c2ccccc2)c(=O)c1Cl ?
RESULT: n

QUERY: Could you check what this test reported for CCC(=O)C(CCN(C)C)(c1ccccc1)c1ccccc1 ?
RESULT: y
